Target: sGC α1/β1 heterodimer (Homo sapiens, UniProt Q02108+Q02153)
Assay: Cell-based sGC functional assay (CASA assay): cGMP generation in CHO-K1/sGC cells, HTRF detection
Conditions: inflection point (IP) of cGMP generation in CHO-K1/sGC cells, 4P fit; activity expressed as percentage of Compound A
pEC50: −log10 of the molar value.
endpoint label: pEC50

Recorded results for 4 molecules are shown here.
| molecule | result number |
| --- | --- |
| CCCCc1nc(-c2nc(N)c3c(n2)NC(=O)C3(c2ccc(Cl)cc2F)C2CC2)cn2ccnc12 (stereo not shown) [Example 369A] | 7.89 |
| Nc1nc(-c2cn3ccnc3c(CCC(F)(F)C(F)(F)F)n2)nc2c1C(c1ccc(Cl)cc1)(C1CCC1)C(=O)N2 (single isomer, unassigned) [Example 350B] | 6.98 |
| Cc1nc(C2(C3CC3)C(=O)Nc3nc(-c4cn5ccnc5c(CCC(F)(F)C(F)(F)F)n4)nc(N)c32)ccc1F (single isomer, unassigned) [Example 363B] | 6.61 |
| Nc1nc(-c2cn3ccnc3c(CCC(F)(F)C(F)(F)F)n2)nc2c1C(C(=O)NC1CC1)(C1CC1)C(=O)N2 (single isomer, unassigned) [Example 61A] | 6.37 |

a = Nc1nc(-c2cn3ccnc3cn2)nc2c1C(c1ccc(Cl)c(F)c1)(C1CC1)C(=O)N2 (stereo not shown) [Example 137B]
b = CC1(c2ccc(F)cc2)C(=O)Nc2nc(-c3cn4ccnc4c(CCC(F)(F)C(F)(F)F)n3)nc(N)c21 (single isomer, unassigned) [Example 68A]
Ask: Dear colleague, could you let me know whether a or b has the lower recorded pEC50? Thanks. Give the label of your selection.
Reply: a

I = CCc1cn2cc(-c3nc(N)c4c(n3)NC(=O)C4(C)c3ccc(F)cc3)nc(CCC(F)(F)C(F)(F)F)c2n1 (stereo not shown) [Example 159A]
II = CCCCc1nc(-c2nc(N)c3c(n2)NC(=O)C3(c2cnc(C)cn2)C2CC2)cn2ccnc12 (single isomer, unassigned) [Example 352B]
Ask: In the pair I and II , the larger recorded pEC50 belongs to which? Selection: enter the item's label.
Reply: II

a = CCCc1nc(-c2nc(N)c3c(n2)NC(=O)C3(C)c2ccc(Cl)c(F)c2)cn2ccnc12 (stereo not shown) [Example 124B]
b = Cc1cn2cc(-c3nc(N)c4c(n3)NC(=O)C4(C)c3ccc(F)cn3)nc(CCC(F)(F)C(F)(F)F)c2n1 (stereo not shown) [Example 172A]
Ask: Given the listed records, identify the one among a and b with higher pEC50. Kindly give the label for the entry you pick.
Reply: a

====

Target: sGC α1/β1 heterodimer (Homo sapiens, UniProt Q02108+Q02153)
Construct: expressed in transfected cells; host or cells: CHO-K1 (clone #7, CHO-K1/sGC)
Assay: Cell-based sGC functional assay (CASA assay): cGMP generation in CHO-K1/sGC cells, HTRF detection
Settings: CHO-K1, percent activation relative to standard Compound A in CHO-K1/sGC cells; read-out: % Act.
endpoint label: Emax (%)

Example molecules with recorded Emax:
| molecule | experimental target | Emax, % |
| --- | --- | --- |
| CC1(c2ccccc2)C(=O)Nc2nc(-c3cn4c(Cl)cnc4c(CCC(F)(F)F)n3)nc(N)c21 (centres unmarked) [Example 259B] | sGC α1/β1 heterodimer (Homo sapiens, UniProt Q02108+Q02153) | 99 |
| CCc1nc(-c2nc(N)c3c(n2)NC(=O)C3(C)c2ccc(Cl)c(F)c2)cn2ccnc12 (centres unmarked) [Example 314B] | sGC α1/β1 heterodimer (Homo sapiens, UniProt Q02108+Q02153) | 104 |

A = CC1(c2ccc(F)cc2)C(=O)Nc2nc(-c3cn4ccnc4cn3)nc(N)c21 (centres unmarked) [Example 134A]
B = CC(C)c1ccc(C2(C)C(=O)Nc3nc(-c4cn5ccnc5c(CCC(F)(F)C(F)(F)F)n4)nc(N)c32)nc1 (centres unmarked) [Example 225A]
Ask: Of A and B , which carries the smaller reported Emax figure? API: response body contains the label of the selected item.
Reply: B

====

Biological target: sGC α1/β1 heterodimer (Homo sapiens, UniProt Q02108+Q02153)
Construct: expressed in transfected cells; host or cells: CHO-K1 (clone #7, CHO-K1/sGC)
Sequence (Q02108 1-690): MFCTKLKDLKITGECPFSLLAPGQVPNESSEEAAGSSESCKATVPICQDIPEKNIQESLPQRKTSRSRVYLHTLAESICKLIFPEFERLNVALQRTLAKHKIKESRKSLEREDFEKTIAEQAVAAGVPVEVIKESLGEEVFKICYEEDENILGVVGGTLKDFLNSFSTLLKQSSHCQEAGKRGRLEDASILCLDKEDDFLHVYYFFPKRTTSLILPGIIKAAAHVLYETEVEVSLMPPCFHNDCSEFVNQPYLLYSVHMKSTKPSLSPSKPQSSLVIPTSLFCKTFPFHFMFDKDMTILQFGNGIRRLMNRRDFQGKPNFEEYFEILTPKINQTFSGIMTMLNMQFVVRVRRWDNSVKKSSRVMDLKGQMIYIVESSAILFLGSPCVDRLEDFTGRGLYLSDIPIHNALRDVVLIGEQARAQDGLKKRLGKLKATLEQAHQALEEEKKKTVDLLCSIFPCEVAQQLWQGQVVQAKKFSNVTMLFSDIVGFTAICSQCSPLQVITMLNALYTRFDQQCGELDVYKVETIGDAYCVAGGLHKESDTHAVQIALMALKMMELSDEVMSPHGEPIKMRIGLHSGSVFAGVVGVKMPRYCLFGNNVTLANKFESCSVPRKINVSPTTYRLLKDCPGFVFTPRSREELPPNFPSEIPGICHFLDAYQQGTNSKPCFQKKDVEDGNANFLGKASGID
Sequence (Q02153 1-619): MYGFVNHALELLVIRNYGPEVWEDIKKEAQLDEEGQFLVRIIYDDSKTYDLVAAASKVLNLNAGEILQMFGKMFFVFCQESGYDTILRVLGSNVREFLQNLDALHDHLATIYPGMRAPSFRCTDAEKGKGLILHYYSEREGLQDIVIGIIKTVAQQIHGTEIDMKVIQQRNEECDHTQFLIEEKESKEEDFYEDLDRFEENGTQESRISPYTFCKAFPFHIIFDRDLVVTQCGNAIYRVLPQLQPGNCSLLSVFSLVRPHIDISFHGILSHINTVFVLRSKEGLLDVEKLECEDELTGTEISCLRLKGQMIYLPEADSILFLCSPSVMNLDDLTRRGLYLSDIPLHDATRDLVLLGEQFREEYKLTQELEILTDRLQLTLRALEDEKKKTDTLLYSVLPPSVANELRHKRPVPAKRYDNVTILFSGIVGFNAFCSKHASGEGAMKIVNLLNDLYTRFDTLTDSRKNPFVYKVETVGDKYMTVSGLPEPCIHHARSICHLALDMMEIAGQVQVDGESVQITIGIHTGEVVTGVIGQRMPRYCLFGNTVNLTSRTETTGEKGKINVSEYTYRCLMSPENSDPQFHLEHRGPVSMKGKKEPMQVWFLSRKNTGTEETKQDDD
Experiment: Cell-based sGC functional assay (CASA assay): cGMP generation in CHO-K1/sGC cells, HTRF detection
Conditions: CHO-K1, percent activation relative to standard Compound A in CHO-K1/sGC cells; read-out: % Act.
endpoint label: Emax (%)

Examples with their reported Emax follow.
| compound | unit abbreviation | Emax |
| --- | --- | --- |
| CC1(c2ccc(C(F)(F)F)cc2)C(=O)Nc2nc(-c3cn4ccnc4cn3)nc(N)c21 (stereo not shown) [Example 143B] | % | 78 |
| CC1(c2ccccc2)C(=O)Nc2nc(-c3cn4ccnc4c(Cc4c(F)ccc(F)c4F)n3)nc(N)c21 (stereo not shown) [Example 100B] | % | 96 |

P = CC1(c2ccc(C(F)(F)F)cn2)C(=O)Nc2nc(-c3cn4ccnc4c(CCCC(F)(F)F)n3)nc(N)c21 (stereo not shown) [Example 213B]
Q = CC1(c2ccc(Cl)cc2)C(=O)Nc2nc(-c3cn4ccnc4cn3)nc(NC3CC(F)(F)C3)c21 (stereo not shown) [Example 287A]
Ask: Out of P and Q , name the one with the higher Emax. Respond with the label that goes with your answer.
Reply: Q

====

Molecular target: sGC α1/β1 heterodimer (Homo sapiens, UniProt Q02108+Q02153)
Assay: Cell-based sGC functional assay (CASA assay): cGMP generation in CHO-K1/sGC cells, HTRF detection
Details: inflection point (IP) of cGMP generation in CHO-K1/sGC cells, 4P fit; activity expressed as percentage of Compound A
endpoint label: EC50 (nM)

I = CC1(c2ccc(Cl)cc2)C(=O)Nc2nc(-c3cn4ccnc4cn3)nc(N3CC(F)(F)C3)c21 (single isomer, unassigned) [Example 277A]
II = CCCCc1nc(-c2nc(N)c3c(n2)NC(=O)C3(c2ccc(F)c(F)c2)C2CC2)cn2ccnc12 (stereo not shown) [Example 330A]
Ask: Which entry has a larger number for EC50, I or II ? Write down the label of the entry you select.
Reply: I
(I: 469 nM, II: 22 nM)

1 = CC(C)c1ccc(C2(C)C(=O)Nc3nc(-c4cn5ccnc5c(CCC(F)(F)C(F)(F)F)n4)nc(N)c32)nc1 (stereo not shown) [Example 225A]
2 = CC1(c2ccccc2)C(=O)Nc2nc(-c3cn4ccnc4c(Cc4ccccc4)n3)nc(N)c21 (stereo not shown) [Example 102B]
Ask: Of 1 and 2 , which carries the smaller reported EC50 figure? Respond with the label that goes with your answer.
Reply: 2
(2: 15 nM, 1: 166 nM)
